observedProperty: pIC50
pIC50 here: minus log base 10 of the concentration, concentration in moles per litre.

Exam item: Lab note: need pIC50 for `COc1ccc2[nH]c(C)c(CC(=O)N[C@@H](CCCCCC(N)=O)c3ncc(-c4ccc5ccccc5c4)[nH]3)c2c1` on Protein deacetylase HDAC6 (Homo sapiens, UniProt Q9UBN7), anyone have it?
Marked response: 6.92

====

Molecular target: Histone deacetylase 4 (Homo sapiens)
Sequence (P56524 whole entry, the tested form may be a part): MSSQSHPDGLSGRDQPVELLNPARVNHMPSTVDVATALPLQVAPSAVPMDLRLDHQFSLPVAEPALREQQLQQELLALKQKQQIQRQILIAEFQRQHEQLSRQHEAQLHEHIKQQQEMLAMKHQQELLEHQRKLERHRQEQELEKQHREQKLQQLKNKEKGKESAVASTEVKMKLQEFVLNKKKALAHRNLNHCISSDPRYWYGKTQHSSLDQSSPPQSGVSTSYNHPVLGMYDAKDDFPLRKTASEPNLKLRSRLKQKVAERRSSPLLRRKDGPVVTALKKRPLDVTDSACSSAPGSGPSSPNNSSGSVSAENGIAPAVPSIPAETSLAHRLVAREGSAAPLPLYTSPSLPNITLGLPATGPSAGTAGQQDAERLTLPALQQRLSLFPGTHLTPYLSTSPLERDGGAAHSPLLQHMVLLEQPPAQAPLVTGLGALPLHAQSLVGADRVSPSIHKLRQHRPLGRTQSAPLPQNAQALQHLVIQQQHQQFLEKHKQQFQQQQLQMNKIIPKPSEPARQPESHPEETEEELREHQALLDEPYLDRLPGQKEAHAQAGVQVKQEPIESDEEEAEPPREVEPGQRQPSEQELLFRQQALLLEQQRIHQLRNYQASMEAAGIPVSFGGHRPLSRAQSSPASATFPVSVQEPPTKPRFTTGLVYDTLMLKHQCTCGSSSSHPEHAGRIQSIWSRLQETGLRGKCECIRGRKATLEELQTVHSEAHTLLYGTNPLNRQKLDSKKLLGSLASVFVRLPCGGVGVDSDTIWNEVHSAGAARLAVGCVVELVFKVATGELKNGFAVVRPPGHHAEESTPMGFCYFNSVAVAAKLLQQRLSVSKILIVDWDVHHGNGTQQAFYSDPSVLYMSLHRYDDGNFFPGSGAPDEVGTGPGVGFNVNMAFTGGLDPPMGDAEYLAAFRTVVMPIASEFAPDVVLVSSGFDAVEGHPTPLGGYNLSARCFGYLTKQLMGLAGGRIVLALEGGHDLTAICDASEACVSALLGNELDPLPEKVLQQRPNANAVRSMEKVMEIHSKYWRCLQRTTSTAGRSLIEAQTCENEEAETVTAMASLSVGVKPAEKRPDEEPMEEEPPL
Experiment: Inhibition of His-tagged HDAC4 catalytic domain expressed in Escherichia coli
observedProperty: IC50

Exam item: Endpoint output: IC50 of `COc1ccc2[nH]c(C)c(CC(=O)N[C@@H](CCCCCC(N)=O)c3ncc(-c4ccc5ccccc5c4)[nH]3)c2c1` . Value?
Marked response: > 10 µM
